pKi: −log10 of the molar value.
Several publications report pKi on Apoptosis regulator Bcl-2 (Homo sapiens, UniProt P10415); those values are gathered here.

Below are worked cases with known answers.
molecule	pKi
C[C@H](O)[C@@H]1[C@H](CO)ON(Cc2cccc(CN(CCN(C)C)Cc3ccccc3)c2)[C@@H]1C(=O)NCCCc1ccccc1	4.30 to 5.22
CC(C)NC(=O)c1cccc(-c2cccc(CN3O[C@@H](CO)[C@@H]([C@H](C)O)[C@H]3C(=O)N[C@H]3C[C@H]4C[C@@H]([C@@H]3C)C4(C)C)c2)c1	> 6.10
CC(O)C1C(CO)ON(Cc2cccc(CN(CCN(C)C)Cc3ccccc3C(F)(F)F)c2)C1C(=O)NC1CC2CC(C1C)C2(C)C (stereo not shown)	> 6.10

# query: pKi | item CC(O)C1C(CO)ON(Cc2cccc(CN(CCN(C)C)Cc3nccs3)c2)C1C(=O)NC1CC2CC(C1C)C2(C)C (stereo not shown) | system: Apoptosis regulator Bcl-2 (Homo sapiens, UniProt P10415)
> 6.10

Short answer please: pKi, Apoptosis regulator Bcl-2 (Homo sapiens, UniProt P10415), entry CCOc1c(CN2O[C@@H](CO)[C@@H]([C@H](C)O)[C@H]2C(=O)N[C@H]2C[C@H]3C[C@@H]([C@@H]2C)C3(C)C)cccc1-c1cc(C(=O)N[C@H](CN(C)C)CS(C)(=O)=O)cc(N(C)C)c1
8.30 to 9.00

Form: Entry = COc1c(CN2O[C@@H](CN)[C@@H]([C@H](C)O)[C@H]2C(=O)N[C@H]2C[C@H]3C[C@@H]([C@@H]2C)C3(C)C)cccc1-c1cc(C(=O)N[C@@H](Cc2ccccc2)CN(C)C)cc(N(C)C)c1 | System = Apoptosis regulator Bcl-2 (Homo sapiens, UniProt P10415) | pKi = ____
8.30 to 9.00

// lookup pKi | system=Apoptosis regulator Bcl-2 (Homo sapiens, UniProt P10415) | key= C[C@@H]1[C@@H](NC(=O)[C@@H]2[C@H]([C@H](C)O)[C@H](CO)ON2Cc2cccc(-c3cccc(C(=O)NCCCO)c3)c2)C[C@H]2C[C@@H]1C2(C)C
> 6.10

What reported pKi corresponds to CC1(C)CCC(CN2CCN(c3ccc(C(=O)NS(=O)(=O)c4cnc(OC[C@H]5CC[C@H](O)CC5)c(Cl)c4)c(Oc4cccc5[nH]ncc45)c3)CC2)=C(c2ccc(Cl)cc2)C1 on Apoptosis regulator Bcl-2 (Homo sapiens, UniProt P10415)?
> 11.00

Return pKi measured with Apoptosis regulator Bcl-2 (Homo sapiens, UniProt P10415) given this molecule: CC(O)C1C(CO)ON(Cc2cccc(CN3Cc4ccccc4C3CN(C)C)c2)C1C(=O)NC1CC2CC(C1C)C2(C)C (stereo not shown)
> 6.10

Missing value: pKi, Apoptosis regulator Bcl-2 (Homo sapiens, UniProt P10415), entry CC1(C)CCC(CN2CCN(c3ccc(C(=O)NS(=O)(=O)c4ccc(OCC5COCCO5)c([N+](=O)[O-])c4)c(Oc4cnc5[nH]ccc5c4)c3)CC2)=C(c2ccc(Cl)cc2)C1 (stereo not shown) . Fill in?
> 11.00

Recorded pKi for C[C@@H]1[C@@H](NC(=O)[C@@H]2[C@H]([C@H](C)O)[C@H](CO)ON2CCCCN(CCCc2ccccc2)CCN(C)C)C[C@H]2C[C@@H]1C2(C)C with Apoptosis regulator Bcl-2 (Homo sapiens, UniProt P10415), please?
5.22 to 6.10

Quick check: pKi on Apoptosis regulator Bcl-2 (Homo sapiens, UniProt P10415), item C[C@@H]1[C@@H](NC(=O)[C@@H]2[C@H]([C@H](C)O)[C@H](CO)ON2Cc2cccc(N(CCN(C)C)Cc3ccccc3)c2)C[C@H]2C[C@@H]1C2(C)C ?
> 6.10

# get_value(readout= pKi, system= Apoptosis regulator Bcl-2 (Homo sapiens, UniProt P10415)) for CC(O)C1C(CO)ON(Cc2cccc(CN(CCN(C)C)Cc3ccccc3Br)c2)C1C(=O)NC1CC2CC(C1C)C2(C)C (stereo not shown)
> 6.10

Form field: pKi recorded for C[C@@H]1[C@@H](NC(=O)[C@@H]2[C@H]([C@H](C)O)[C@H](CO)ON2Cc2cccc(-c3ccc(C(=O)N(C)C)cc3)c2)C[C@H]2C[C@@H]1C2(C)C with Apoptosis regulator Bcl-2 (Homo sapiens, UniProt P10415) (enter value)
> 6.10

What pKi appears in the records for this molecule with Apoptosis regulator Bcl-2 (Homo sapiens, UniProt P10415)? CC(O)C1C(CO)ON(Cc2cccc(CNC(CN(C)C)c3ccccc3)c2)C1C(=O)NC1CC2CC(C1C)C2(C)C (stereo not shown)
> 6.10

Query for Apoptosis regulator Bcl-2 (Homo sapiens, UniProt P10415): what pKi does the record show for C[C@H](O)[C@@H]1[C@H](CO)ON(Cc2cccc(C#C[C@@H](O)c3ccccc3)c2)[C@@H]1C(=O)N[C@H]1C[C@H]2CC([C@@H]1C)C2(C)C ?
5.22 to 6.10

For Apoptosis regulator Bcl-2 (Homo sapiens, UniProt P10415), provide pKi of CNC(=O)c1cc(-c2cccc(CN3O[C@@H](CNCC(C)C)[C@@H]([C@H](C)O)[C@H]3C(=O)N[C@H]3C[C@H]4C[C@@H]([C@@H]3C)C4(C)C)c2OC)cc(N(C)C)c1 please.
8.05 to 8.30

Look up pKi with Apoptosis regulator Bcl-2 (Homo sapiens, UniProt P10415) for this molecule: CC(O)C1C(CO)ON(Cc2cccc(CNC(CN(C)C)C3CCCCC3)c2)C1C(=O)NC1CC2CC(C1C)C2(C)C (stereo not shown)
> 6.10

Test system Apoptosis regulator Bcl-2 (Homo sapiens, UniProt P10415); read-out pKi; what value for CCNc1cc(C(=O)N[C@@H](CC(C)C)CN(C)C)cc(-c2cccc(CN3O[C@@H](CO)[C@@H]([C@H](C)O)[C@H]3C(=O)N[C@H]3C[C@H]4C[C@@H]([C@@H]3C)C4(C)C)c2OC)c1 ?
> 9.00

Given the entry C[C@@H]1C(NC(=O)[C@@H]2[C@H]([C@H](C)O)[C@H](CO)ON2Cc2cccc(-c3ccc(NC(=O)N(C)CCCN(C)C)cc3)c2)C[C@@H]2CC1C2(C)C (stereo partly shown) , what pKi was observed with Apoptosis regulator Bcl-2 (Homo sapiens, UniProt P10415)?
> 6.10

# returns recorded pKi (system: Apoptosis regulator Bcl-2 (Homo sapiens, UniProt P10415)) for C[C@H](O)[C@@H]1[C@H](CO)ON(Cc2cccc(CN(CCN(C)C)Cc3ccccc3)c2)[C@@H]1C(=O)NCCc1cccc(Br)c1
5.22 to 6.10

Observed pKi on Apoptosis regulator Bcl-2 (Homo sapiens, UniProt P10415) for CC(O)C1C(CO)ON(Cc2cccc(CN(Cc3ccccc3)C(C)CN(C)C)c2)C1C(=O)NC1CC2CC(C1C)C2(C)C (stereo not shown) , please.
> 6.10
